In this section we review reported pIC50 values for a set of molecules.
- System: IL-17FF
- test_method_notes: IL-17FF production by PHA-stimulated human PBMC (human IL-17F ELI-Pair)
- Type: cell-based
- conditions_used: human PBMC, 2 μg/ml PHA, 48 hours; read-out: B: IC50 (IL-17FF)
pIC50: −log10 of the molar value.
readout_type: pIC50

record_smiles | test_result
Fc1cccc(-n2ncc(-c3onc(-c4c(F)cccc4Cl)c3-c3ccoc3)c2C(F)(F)F)c1 | 6.00 to 7.00
Fc1cccc(Cl)c1-c1noc(-c2cnn(-c3cccc(Cl)c3)c2C(F)(F)F)c1-c1ccco1 | > 8.00
Cc1nnc(-c2c(-c3c(F)cccc3Cl)noc2-c2cnn(-c3ccccc3Cl)c2C(F)(F)F)s1 | 6.00 to 7.00
Cc1nnc(-c2c(-c3c(F)cccc3Cl)noc2-c2cnn(-c3ccncc3)c2C(F)(F)F)s1 | 6.00 to 7.00
COc1csc(-c2c(-c3c(F)cccc3Cl)noc2-c2cnn(-c3cccc(F)c3)c2C(F)(F)F)n1 | 6.00 to 7.00
Cc1nnc(-c2c(-c3c(F)cccc3Cl)noc2-c2cnn(-c3ccccn3)c2C(F)(F)F)o1 | 7.00 to 8.00
Fc1cccc(Cl)c1-c1noc(-c2cnn(-c3cccc(Cl)c3)c2C(F)(F)F)c1-c1nnco1 | > 8.00
COc1cccc(Cl)c1-c1noc(-c2cnn(-c3cccnc3)c2C(F)(F)F)c1-c1cnco1 | 5.00 to 6.00
Cc1nnc(-c2c(-c3c(F)cccc3Cl)noc2-c2cnn(-c3ccccc3Cl)c2C(F)(F)F)o1 | 5.00 to 6.00
Oc1csc(-c2c(-c3c(F)cccc3Cl)noc2-c2cnn(-c3cccc(F)c3)c2C(F)(F)F)n1 | 6.00 to 7.00
Fc1cccc(-n2ncc(-c3onc(-c4c(F)cccc4Cl)c3-c3ccco3)c2C(F)(F)F)c1 | > 8.00
Fc1cccc(-n2ncc(-c3onc(-c4c(F)cccc4Cl)c3-c3nnn[nH]3)c2C(F)(F)F)c1 | 5.00 to 6.00
CC(=O)Nc1cccc(-n2ncc(-c3onc(-c4c(F)cccc4Cl)c3-c3nnc(C)s3)c2C(F)(F)F)c1 | 5.00 to 6.00
Cc1nnc(-c2c(-c3c(F)cccc3Cl)noc2-c2cnn(-c3ccccn3)c2C(F)(F)F)s1 | 7.00 to 8.00
CC(=O)Nc1cccc(-n2ncc(-c3onc(-c4c(F)cccc4Cl)c3-c3nnc(C)o3)c2C(F)(F)F)c1 | 5.00 to 6.00
Fc1cccc(Cl)c1-c1noc(-c2cnn(-c3cccc(Cl)c3)c2C(F)(F)F)c1-c1ccoc1 | > 8.00
Fc1cccc(Cl)c1-c1noc(-c2cnn(-c3ccncc3)c2C(F)(F)F)c1-c1ccoc1 | 7.00 to 8.00
Fc1cccc(Cl)c1-c1noc(-c2cnn(-c3cccc(Cl)c3)c2C(F)(F)F)c1-c1cnco1 | > 8.00
Fc1cccc(Cl)c1-c1noc(-c2cnn(-c3ccncc3)c2C(F)(F)F)c1-c1nnco1 | 6.00 to 7.00
Fc1ccccc1-n1ncc(-c2onc(-c3c(F)cccc3Cl)c2-c2nccs2)c1C(F)(F)F | 7.00 to 8.00
